Each recorded value in this set is attributed to ChEMBL document CHEMBL1155597.

Assign selectivity ratio to each entry below.
ASSAY DETAILS: Selectivity ratio of ED50 for KB cells to IC50 for Plasmodium falciparum T9-96
Format: ADME, cell-based
EXPERIMENTAL CONTEXT: human, KB cells (cytotoxicity) versus Plasmodium falciparum T9-96
Numbers only.

Solved cases (3 shown):
>>> print(df.to_string())
                                   compound           quantity  number
0  CC(O)c1cc2c(o1)C(=O)c1ccccc1C2=O (centres undefined)  selectivity ratio     5.4
1  C[C@]12CC[C@@H]3[C@H]1C=C1C(=O)c4cc(O)ccc4C(=O)[C@@]1(O2)[C@]3(C)C=O  selectivity ratio    9.54
2  CC1=C2C=C3C(=O)c4cc(O)ccc4C(=O)C3(O)C(C)=C2CC1 (centres undefined)  selectivity ratio      14

Ask | Give me measured selectivity ratio, please, for this compound: CC1=C2C=C3C(=O)c4ccc(O)cc4C(=O)C3(O)C(C)=C2CC1 (centres undefined)
Reply | 9.74

====

Test system: Plasmodium falciparum
ASSAY DETAILS: Antimalarial activity after 48 hrs against chloroquine-sensitive Plasmodium falciparum T9-96 by LDH reporter assay
Assay type: functional, organism-based
EXPERIMENTAL CONTEXT: T9-96, 48 h
QUANTITY: IC50 (µM)
Numbers only, in µM.

Completed entries (count: 2):
>>> print(df.to_string())
                                   molecule  number
0  C[C@]12CC[C@@H]3[C@H]1C=C1C(=O)c4cc(O)ccc4C(=O)[C@@]1(O2)[C@]3(C)C=O [ISOPINNATAL]    1.55
1  CC1=C2C=C3C(=O)c4cc(O)ccc4C(=O)C3(O)C(C)=C2CC1 (centres undefined) [ISOKIGELINOL]    11.9

Return reported IC50 values for all items listed beneath this line.
1. CC(O)c1cc2c(o1)C(=O)c1ccccc1C2=O (centres undefined)
2. CC1=C2C=C3C(=O)c4ccc(O)cc4C(=O)C3(O)C(C)=C2CC1 (centres undefined) [KIGELINOL]

Reply |
0.718
15.2

====

For each entry below, report its selectivity ratio value.
ASSAY DETAILS: Selectivity ratio of ED50 for KB cells to IC50 for Plasmodium falciparum K1
Format: ADME, cell-based
EXPERIMENTAL CONTEXT: human, KB cells (cytotoxicity) versus Plasmodium falciparum K1
Give bare numbers.

In [3]: df
Out[3]:
                                   molecule           quantity  number
0  CC1=C2C=C3C(=O)c4cc(O)ccc4C(=O)C3(O)C(C)=C2CC1 (centres undefined)  selectivity ratio    12.7
1  C[C@]12CC[C@@H]3[C@H]1C=C1C(=O)c4cc(O)ccc4C(=O)[C@@]1(O2)[C@]3(C)C=O  selectivity ratio    19.4
2  CC1=C2C=C3C(=O)c4ccc(O)cc4C(=O)C3(O)C(C)=C2CC1 (centres undefined)  selectivity ratio    8.88

Continue with the next molecule.
Ask | Name the recorded selectivity ratio of the molecule listed here: CC(O)c1cc2c(o1)C(=O)c1ccccc1C2=O (centres undefined)
Reply | 6.18

====

Tested on: Plasmodium falciparum
ASSAY DETAILS: Antimalarial activity after 48 hrs against chloroquine-resistant Plasmodium falciparum K1 by LDH reporter assay
Type: functional, organism-based
EXPERIMENTAL CONTEXT: K1, 48 h
QUANTITY: IC50 (µM)
One number for each entry, in µM.

# example entries with known answers
In [3]: df
Out[3]:
                                   compound         assayed_system  quantity  number
0  C[C@]12CC[C@@H]3[C@H]1C=C1C(=O)c4cc(O)ccc4C(=O)[C@@]1(O2)[C@]3(C)C=O  Plasmodium falciparum      IC50   0.763
1  CC1=C2C=C3C(=O)c4ccc(O)cc4C(=O)C3(O)C(C)=C2CC1 (centres undefined)  Plasmodium falciparum      IC50    16.7
2  CC(O)c1cc2c(o1)C(=O)c1ccccc1C2=O (centres undefined)  Plasmodium falciparum      IC50   0.627

Ask | Specify measured IC50 for CC1=C2C=C3C(=O)c4cc(O)ccc4C(=O)C3(O)C(C)=C2CC1 (centres undefined) .
Reply | 15.2
